The compounds listed here are annotated with their IC50.
Target: human HPK1 (MAP4K1) (Homo sapiens (Human), UniProt Q92918)
Sequence (Q92918 17-274): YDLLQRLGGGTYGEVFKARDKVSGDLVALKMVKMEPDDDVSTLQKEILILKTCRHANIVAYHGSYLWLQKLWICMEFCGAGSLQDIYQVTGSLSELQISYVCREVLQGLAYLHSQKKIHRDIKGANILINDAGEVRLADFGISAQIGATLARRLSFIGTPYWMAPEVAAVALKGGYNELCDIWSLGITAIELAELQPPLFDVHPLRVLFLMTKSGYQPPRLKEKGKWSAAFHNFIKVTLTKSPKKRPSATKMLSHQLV
Assay: HPK1 IC50 Assay (TR-FRET peptide phosphorylation)
Assay type: biochemical
Details: recombinant HPK1 kinase domain 0.15 nM, 10 μM ATP, 1 μM STK S1 peptide; geometric mean of multiple experiments
Write the value in nM as a bare number.

>  <smiles.code>
CNC(=O)c1cc(Nc2nc(-c3ccc4c(c3)N([C@H]3C[C@@H](N5CCCCC5)C3)C(=O)C43CCN(C(C)=O)CC3)cc3ncn(C(C)C)c23)ccc1C

>  <system.name>
human HPK1 (MAP4K1) (Homo sapiens (Human), UniProt Q92918)

>  <test.result>
0.1

$$$$
>  <smiles.code>
CNC(=O)c1cc(Nc2nc(-c3ccc4c(c3)N([C@H]3C[C@@H](N5CC(C)(C)C5)C3)C(=O)C4(C)C)cc3ncn(C(C)C)c23)ccc1C

>  <system.name>
human HPK1 (MAP4K1) (Homo sapiens (Human), UniProt Q92918)

>  <test.result>
0.1

$$$$

Query: Answer with reported IC50 of CNC(=O)c1cc(Nc2nc(-c3ccc4c(c3)N([C@H]3C[C@@H](N5CCCCC5)C3)C(=O)C43CCN(C4COC4)CC3)cc3ncn(C4CC4)c23)ccc1C
Reply: 0.08
